system: Fusarium culmorum; experiment: Fusarium culmorum (Foot rot of cereals) in vitro test, radial growth on Potato Dextrose Agar; type: cell-based; conditions: 168 h, read-out: control
Provide the recorded inhibition of growth at 300 ppm for the entries that follow.

Item CCN(C)C=Nc1cc(C)c(C(=O)CSc2ccc(F)cc2)cc1C [Compound 28] has what recorded inhibition of growth at 300 ppm?
70%

Item CCN(C)C=Nc1cc(C)c(C(=O)COc2cccc(Cl)c2)cc1C [Compound 13] has what recorded inhibition of growth at 300 ppm?
70%

Item Cc1cc(C(=O)COc2ccccc2Cl)c(C)cc1N=CN(C)C [Compound 109] has what recorded inhibition of growth at 300 ppm?
70%

Item CCN(C)C=Nc1cc(C)c(C(=O)CSc2ccc(C)c(C)c2)cc1C [Compound 11] has what recorded inhibition of growth at 300 ppm?
70%

Item CCN(C)C=Nc1cc(C)c(C(=O)CSc2ccc(Cl)cc2)cc1C [Compound 29] has what recorded inhibition of growth at 300 ppm?
70%

Item CCN(C)C=Nc1cc(C)c(C(=O)COc2c(C)cccc2Cl)cc1C [Compound 91] has what recorded inhibition of growth at 300 ppm?
70%

Item CCN(C)C=Nc1cc(C)c(C(=O)CN(C)c2ccc(Cl)cc2)cc1C [Compound 84] has what recorded inhibition of growth at 300 ppm?
70%

Item CCN(C)C=Nc1cc(C)c(C(=O)COc2cccc(C)c2)cc1C [Compound 12] has what recorded inhibition of growth at 300 ppm?
70%

Item CCN(C)C=Nc1cc(C)c(C(=O)COc2ccccc2)cc1C [Compound 2] has what recorded inhibition of growth at 300 ppm?
70%

Item CCN(C)C=Nc1cc(C)c(C(=O)Cn2cnnc2)cc1C [Compound 114] has what recorded inhibition of growth at 300 ppm?
70%

Item CCN(C)C=Nc1cc(C)c(C(=O)CSc2c(F)cccc2F)cc1C [Compound 103] has what recorded inhibition of growth at 300 ppm?
70%

Item CCN(C)C=Nc1cc(C)c(C(=O)COc2c(Cl)cccc2Cl)cc1C [Compound 86] has what recorded inhibition of growth at 300 ppm?
70%

Item CCN(C)C=Nc1cc(C)c(C(=O)C(C)(C)Sc2cccc(C)c2)cc1C [Compound 83] has what recorded inhibition of growth at 300 ppm?
70%

Item CCN(C)C=Nc1cc(C)c(C(=O)CSc2cccc(C)c2)cc1C [Compound 5] has what recorded inhibition of growth at 300 ppm?
70%

Item CCN(C)C=Nc1cc(C)c(C(=O)COc2c(C)cccc2Br)cc1C [Compound 88] has what recorded inhibition of growth at 300 ppm?
70%

Item CCN(C)C=Nc1cc(C)c(C(=O)CSc2ccc(F)cc2F)cc1C [Compound 102] has what recorded inhibition of growth at 300 ppm?
70%
